- TESTED TARGET: T1, Influenza (NP366 peptide) peptide on H-2Db (mouse)
- T1 peptide: ASNENMETM
- PROTOCOL NOTES: data from [15]; method not given; soluble, other
MEASUREMENT TYPE: Kd (µM)
A number alone suffices; assume µM.

Q: So what's the measured Kd for this one? NP2-B17 (TCR) alpha TRAV14-1*01 CDR3: AASEGSGSWQLI beta TRBV17*01 CDR3: ASSAGLDAEQY
Ans: 30
